The reader will find reported pIC50 values listed item by item below.
Target: human MASP1 (Homo sapiens (Human), UniProt P48740)
Sequence (P48740 other isoform, or with tags, fused parts or gaps): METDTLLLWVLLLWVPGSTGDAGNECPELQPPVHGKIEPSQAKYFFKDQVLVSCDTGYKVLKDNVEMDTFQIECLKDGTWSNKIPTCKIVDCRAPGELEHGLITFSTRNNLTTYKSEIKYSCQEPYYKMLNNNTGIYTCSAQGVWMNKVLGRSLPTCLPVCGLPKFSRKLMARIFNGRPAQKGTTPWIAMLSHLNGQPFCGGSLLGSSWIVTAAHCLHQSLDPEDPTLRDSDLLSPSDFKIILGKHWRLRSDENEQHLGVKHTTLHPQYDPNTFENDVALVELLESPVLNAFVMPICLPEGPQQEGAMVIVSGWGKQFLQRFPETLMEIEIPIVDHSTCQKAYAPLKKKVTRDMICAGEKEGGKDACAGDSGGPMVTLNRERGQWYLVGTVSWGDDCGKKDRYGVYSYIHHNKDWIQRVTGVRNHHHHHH
Test: Biochemical human MASP1 assay (FRET substrate)
Details: Average IC50; recombinant human MASP1; read-out: human MASP1 IC50
Where a SMILES comes first, the peptide text is derived from it. Bridges are numbered along the chain shown (N, C = ends). [ ]: non-standard residue; d: D form. Oic = O=C(O)[C@@H]1C[C@@H]2CCCC[C@@H]2N1; tBuAla = CC(C)(C)C[C@H](N)C(=O)O; Pen = CC(C)(S)[C@H](N)C(=O)O
Formally, pIC50 is defined as -log10 of the concentration c, with c in mol/L.

What pIC50 value was documented for this compound, CC[C@H](C)[C@@H]1NC(=O)[C@@H]2CCCN2C(=O)[C@H]([C@@H](C)CC)NC(=O)[C@H]2NC(=O)[C@H]([C@@H](C)CC)NC(=O)[C@@H]3CCCN3C(=O)[C@@H]3CCCN3C(=O)[C@H](CC(C)(C)C)NC(=O)[C@H](CO)NC(=O)[C@H](CCCNC(=N)N)NC(=O)[C@H](CO)NC(=O)[C@H](CSSC2(C)C)NC1=O [Example 88] (cyclo(CSRS[tBuAla]PPI[Pen]IPI); disulfide 1-9) ?
6.00

Switching to the query record.
Give the measured pIC50 of CC[C@H](C)[C@@H]1NC(=O)CNC(=O)[C@@H](N)CCC(=O)NCCCC[C@@H](C(N)=O)NC(=O)[C@H](CC(=O)O)NC(=O)[C@@H]2CCCN2C(=O)[C@H]([C@@H](C)CC)NC(=O)[C@H]2NC(=O)[C@H]([C@@H](C)CC)NC(=O)[C@@H]3C[C@@H]4CCCC[C@@H]4N3C(=O)[C@@H]3CCCN3C(=O)[C@H](CC(C)C)NC(=O)[C@H](CO)NC(=O)[C@H](CCCNC(=N)N)NC(=O)[C@H](CO)NC(=O)[C@H](CSSC2(C)C)NC1=O [Example 91] (H-EGICSRSLP[Oic]I[Pen]IPDK-NH2; lactam 1-16; disulfide 4-12) .
7.54

----------
Biological target: human MASP1 (Homo sapiens (Human))
Experiment: Biochemical human MASP1 assay (FRET substrate)
Conditions: Average IC50; recombinant human MASP1; read-out: human MASP1 IC50
Source text: A truncated cDNA sequence of human MASP1 encoding the fragment corresponding to the amino acids 297-699 with a C-terminal His Tag and N-terminal Ig-kappa secretion signal (SEQ ID No: 2) was subcloned into the mammalian expression vector pcDNA3.1 (Invitrogen). The MASP1 or MASP2 expression vectors were transfected into the HEK293 (ATCC No. CRL-1573) cell line using Lipofectamine LTX® Reagent (Thermo-Fischer), as described by the manufacturer. […]
Where a SMILES comes first, the peptide text is derived from it. Bridges are numbered along the chain shown (N, C = ends). [ ]: non-standard residue; d: D form. Oic = O=C(O)[C@@H]1C[C@@H]2CCCC[C@@H]2N1; Pen = CC(C)(S)[C@H](N)C(=O)O; Dap = NC[C@H](N)C(=O)O
experimental_endpoint: pIC50
Scale: negative log10 of molar concentration, which is what pIC50 denotes.

Given the molecule CC[C@H](C)[C@@H]1NC(=O)CNC(=O)[C@@H](N)CCC(=O)NC[C@@H](C(N)=O)NC(=O)[C@H](CC(=O)O)NC(=O)[C@@H]2CCCN2C(=O)[C@H]([C@@H](C)CC)NC(=O)[C@H]2NC(=O)[C@H]([C@@H](C)CC)NC(=O)[C@@H]3C[C@@H]4CCCC[C@@H]4N3C(=O)[C@@H]3CCCN3C(=O)[C@H](CC(C)C)NC(=O)[C@H](CO)NC(=O)[C@H](CCCNC(=N)N)NC(=O)[C@H](CO)NC(=O)[C@H](CSSC2(C)C)NC1=O [Example 93] (H-EGICSRSLP[Oic]I[Pen]IPD[Dap]-NH2; lactam 1-16; disulfide 4-12) , what is its reported pIC50?
7.46
